Cited source for all entries: patent US20250288568A1

assay: Lung PK after intratracheal administration to Sprague-Dawley rats (PreciseInhale system); type: in vivo; conditions: rat, inhaled or intranasal, male Sprague-Dawley rats, 10 μg/lung deposited dose, terminal half-life in lung, read-out: Lung t1/2 (converted)
ASSAY_ENDPOINT: half-life
Please report the result as a number followed by the unit.

Task: What value of half-life has been recorded for this entry: CS(=O)(=O)Nc1ccc(C(=O)O[C@@H](Cc2c(Cl)c[n+]([O-])cc2Cl)c2ccc(OC(F)F)c(OCC3CC3)c2)cc1OCC1CC1 (single isomer, unassigned) [Crystal Form 2]
Output: 462 min
